Attribution: ChEMBL document CHEMBL5154740

EXPERIMENTAL_SYSTEM: Mitogen-activated protein kinase 1 (Homo sapiens) (UniProt P28482)
Sequence (P28482 whole entry): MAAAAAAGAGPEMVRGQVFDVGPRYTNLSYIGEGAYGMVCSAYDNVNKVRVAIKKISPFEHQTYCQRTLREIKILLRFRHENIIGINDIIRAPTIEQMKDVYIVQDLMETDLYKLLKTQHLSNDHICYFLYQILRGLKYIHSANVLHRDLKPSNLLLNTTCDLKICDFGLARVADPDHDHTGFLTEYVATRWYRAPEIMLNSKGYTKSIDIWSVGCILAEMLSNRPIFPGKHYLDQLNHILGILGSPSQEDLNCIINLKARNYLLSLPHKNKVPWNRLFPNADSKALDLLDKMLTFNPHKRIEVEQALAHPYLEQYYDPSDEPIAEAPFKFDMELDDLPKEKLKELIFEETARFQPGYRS
METHOD_DESCRIPTION: Inhibition of MAPK1 (unknown origin) at 50 nM by Z'LYTE screening method relative to control
Please provide measured inhibition for the entries that follow.
Write the numeric value and append its unit.

Exercise: Sample "O=c1c2ccccc2[se]n1-c1nc(N[C@@H]2C[C@H]3CC[C@@H]2C3)c2nc[nH]c2n1" — what was its inhibition?
Key: 0%

Exercise: Sample "O=c1c2ccccc2[se]n1-c1nc(N[C@H]2CC[Se]C2)c2nc[nH]c2n1" — what was its inhibition?
Key: 9%

Exercise: Sample "O=C1c2ccccc2CN1c1nc(NC2CCCCC2)c2nc[nH]c2n1" — what was its inhibition?
Key: 2%

Exercise: Sample "O=c1c2ccccc2[se]n1-c1nc(N[C@H]2CCOC2)c2nc[nH]c2n1" — what was its inhibition?
Key: 2%

Exercise: Sample "O=C1c2ccccc2CN1c1nc(NC2CCCC2)c2nc[nH]c2n1" — what was its inhibition?
Key: 0%

Exercise: Sample "O=c1c2ccccc2[se]n1-c1nc(NC2CCCCC2)c2nc[nH]c2n1" — what was its inhibition?
Key: 0%

Exercise: Sample CCN(CC)CCCC(C)Nc1nc(-n2[se]c3ccccc3c2=O)nc2[nH]cnc12 (configuration not stated) — what was its inhibition?
Key: 0%

Exercise: Sample "CCCNc1nc(-n2[se]c3ccccc3c2=O)nc2[nH]cnc12" — what was its inhibition?
Key: 1%

Exercise: Sample "O=C1c2ccccc2CN1c1nc(N[C@H]2CC[Se]C2)c2nc[nH]c2n1" — what was its inhibition?
Key: 0%

Exercise: Sample "C[C@@H]1[C@H]2C[C@@H](C[C@H]1Nc1nc(-n3[se]c4ccccc4c3=O)nc3[nH]cnc13)C2(C)C" — what was its inhibition?
Key: 1%

Exercise: Sample "O=c1c2ccccc2[se]n1-c1nc(Nc2ccccc2)c2nc[nH]c2n1" — what was its inhibition?
Key: 1%

Exercise: Sample CCN(CC)CCCC(C)Nc1nc(N2Cc3ccccc3C2=O)nc2[nH]cnc12 (configuration not stated) — what was its inhibition?
Key: 2%

---

EXPERIMENTAL_SYSTEM: Mitogen-activated protein kinase 8 (Homo sapiens) (UniProt P45983)
Sequence (P45983 whole entry): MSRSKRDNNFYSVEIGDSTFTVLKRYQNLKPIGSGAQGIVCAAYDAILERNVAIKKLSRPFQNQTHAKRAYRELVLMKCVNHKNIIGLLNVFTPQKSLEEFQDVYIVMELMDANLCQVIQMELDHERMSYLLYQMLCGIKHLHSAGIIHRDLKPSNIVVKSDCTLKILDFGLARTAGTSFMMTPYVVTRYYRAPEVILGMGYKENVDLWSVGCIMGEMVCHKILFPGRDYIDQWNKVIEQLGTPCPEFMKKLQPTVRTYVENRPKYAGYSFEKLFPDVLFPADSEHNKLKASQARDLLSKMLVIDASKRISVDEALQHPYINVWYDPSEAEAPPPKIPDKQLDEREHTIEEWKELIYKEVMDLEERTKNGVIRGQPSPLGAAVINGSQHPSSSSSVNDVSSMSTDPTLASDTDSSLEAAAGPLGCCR
METHOD_DESCRIPTION: Inhibition of MAPK8 (unknown origin) at 50 nM by Z'LYTE screening method relative to control
Please provide measured inhibition for the entries that follow.
Expressed in %, but write only the number.

Exercise: Sample "O=C1c2ccccc2CN1c1nc(NC2CCCC2)c2nc[nH]c2n1" — what was its inhibition?
Key: 0

Exercise: Sample "O=c1c2ccccc2[se]n1-c1nc(NC2CCCCC2)c2nc[nH]c2n1" — what was its inhibition?
Key: 0

Exercise: Sample "O=c1c2ccccc2[se]n1-c1nc(N[C@H]2CCOC2)c2nc[nH]c2n1" — what was its inhibition?
Key: 0

---

EXPERIMENTAL_SYSTEM: Protein kinase C eta type (Homo sapiens)
Sequence (P24723 whole entry): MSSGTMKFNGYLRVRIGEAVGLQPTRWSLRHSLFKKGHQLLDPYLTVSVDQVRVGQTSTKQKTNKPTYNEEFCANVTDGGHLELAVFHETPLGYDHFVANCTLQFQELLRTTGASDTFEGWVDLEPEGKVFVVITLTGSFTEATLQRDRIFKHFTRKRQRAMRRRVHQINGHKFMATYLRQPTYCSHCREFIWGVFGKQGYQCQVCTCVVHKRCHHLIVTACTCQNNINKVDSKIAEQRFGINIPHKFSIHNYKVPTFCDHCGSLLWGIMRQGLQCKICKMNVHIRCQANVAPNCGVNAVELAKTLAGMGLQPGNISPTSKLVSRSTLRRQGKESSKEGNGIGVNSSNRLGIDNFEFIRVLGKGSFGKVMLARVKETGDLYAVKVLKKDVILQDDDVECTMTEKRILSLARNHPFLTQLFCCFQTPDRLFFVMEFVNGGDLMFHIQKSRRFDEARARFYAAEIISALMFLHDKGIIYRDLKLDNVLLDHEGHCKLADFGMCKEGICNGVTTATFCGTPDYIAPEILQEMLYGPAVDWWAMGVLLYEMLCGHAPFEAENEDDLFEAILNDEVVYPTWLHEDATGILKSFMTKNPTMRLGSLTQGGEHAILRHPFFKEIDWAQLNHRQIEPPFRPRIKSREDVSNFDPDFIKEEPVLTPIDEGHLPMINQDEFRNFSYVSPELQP
METHOD_DESCRIPTION: Inhibition of PKCeta (unknown origin) at 50 nM by Z'LYTE screening method relative to control
TEST_READOUT: inhibition (%)
Expressed in %, but write only the number.

Exercise: Sample "C[C@@H]1[C@H]2C[C@@H](C[C@H]1Nc1nc(-n3[se]c4ccccc4c3=O)nc3[nH]cnc13)C2(C)C" — what was its inhibition?
Key: 1

Exercise: Sample "O=c1c2ccccc2[se]n1-c1nc(N[C@H]2CC[Se]C2)c2nc[nH]c2n1" — what was its inhibition?
Key: 6

Exercise: Sample CCN(CC)CCCC(C)Nc1nc(N2Cc3ccccc3C2=O)nc2[nH]cnc12 (centres undefined) — what was its inhibition?
Key: 2

Exercise: Sample CCN(CC)CCCC(C)Nc1nc(-n2[se]c3ccccc3c2=O)nc2[nH]cnc12 (centres undefined) — what was its inhibition?
Key: 11

Exercise: Sample "CCCNc1nc(-n2[se]c3ccccc3c2=O)nc2[nH]cnc12" — what was its inhibition?
Key: 0

Exercise: Sample "O=C1c2ccccc2CN1c1nc(N[C@H]2CC[Se]C2)c2nc[nH]c2n1" — what was its inhibition?
Key: 3

Exercise: Sample "O=C1c2ccccc2CN1c1nc(NC2CCCCC2)c2nc[nH]c2n1" — what was its inhibition?
Key: 0

Exercise: Sample "O=c1c2ccccc2[se]n1-c1nc(N[C@@H]2C[C@H]3CC[C@@H]2C3)c2nc[nH]c2n1" — what was its inhibition?
Key: 1

Exercise: Sample "O=c1c2ccccc2[se]n1-c1nc(NC2CCCCC2)c2nc[nH]c2n1" — what was its inhibition?
Key: 0
